measurement-protocol: drug combination growth inhibition, ovarian cancer – cell-based, oncology-focused library, rucaparib conditional, profiling panel (AID 1508598)
experimental-setup: patient-derived ovarian cancer cells, CellTiter-Glo viability, 144 h; at 0.00122 µM; OCI-P5x cells; with rucaparib 20 µM; hits give low values; 100% = cells with rucaparib alone
measure-name: viability (%)

[[record]]
molecule = "Cc1csc(-c2nnc(Nc3ccc(Oc4ncccc4-c4ccnc(N)n4)cc3)c3ccccc23)c1"
measure_name = "viability"
unit_of_measurement = "%"
reported_value = 108

[[record]]
molecule = "Cc1ccc2c(=O)c3cccc(CC(=O)O)c3oc2c1C"
measure_name = "viability"
unit_of_measurement = "%"
reported_value = 102

[[record]]
molecule = "CC1(C)CCC(c2ccc(Cl)cc2)=C(CN2CCN(c3ccc(C(=O)NS(=O)(=O)c4ccc(N[C@H](CCN5CCOCC5)CSc5ccccc5)c(S(=O)(=O)C(F)(F)F)c4)cc3)CC2)C1"
measure_name = "viability"
unit_of_measurement = "%"
reported_value = 118

[[record]]
molecule = "CC(C)(C)Cn1c(N)nc2ccc(-c3[nH]c(C(C)(C)C)nc3-c3ccc(F)cc3)nc21"
measure_name = "viability"
unit_of_measurement = "%"
reported_value = 101

[[record]]
molecule = "CCCCCCCCc1ccc(CCC(N)(CO)CO)cc1"
measure_name = "viability"
unit_of_measurement = "%"
reported_value = 89.4

[[record]]
molecule = "CN1CCN(c2ccc(OC(F)(F)F)c(Nc3ncc4c(n3)-c3c(c(C(N)=O)nn3CCO)CC4)c2)CC1"
measure_name = "viability"
unit_of_measurement = "%"
reported_value = 94.4

[[record]]
molecule = "COC(=O)Nc1ccc(-c2nc(N3CCOCC3)c3cnn(C4CCN(C(=O)OC)CC4)c3n2)cc1"
measure_name = "viability"
unit_of_measurement = "%"
reported_value = 104

[[record]]
molecule = "Cn1cncc1[C@@](N)(c1ccc(Cl)cc1)c1ccc2c(c1)c(-c1cccc(Cl)c1)cc(=O)n2C"
measure_name = "viability"
unit_of_measurement = "%"
reported_value = 103

[[record]]
molecule = "Cc1cc(N2CCOCC2)cc2[nH]c(-c3c(NC[C@@H](O)c4cccc(Cl)c4)cc[nH]c3=O)nc12"
measure_name = "viability"
unit_of_measurement = "%"
reported_value = 133

[[record]]
molecule = "Nc1nc(Nc2ccc(S(N)(=O)=O)cc2)nn1C(=O)c1c(F)cccc1F"
measure_name = "viability"
unit_of_measurement = "%"
reported_value = 91.5

[[record]]
molecule = "O=C(/C=C/c1cccc(S(=O)(=O)Nc2ccccc2)c1)NO"
measure_name = "viability"
unit_of_measurement = "%"
reported_value = 113

[[record]]
molecule = "O=C(Cc1ccc(-c2ccc(OCCN3CCOCC3)cc2)cn1)NCc1ccccc1"
measure_name = "viability"
unit_of_measurement = "%"
reported_value = 108

[[record]]
molecule = "Cc1nc(N)sc1-c1ccnc(Nc2ccc(N3CCOCC3)cc2)n1"
measure_name = "viability"
unit_of_measurement = "%"
reported_value = 115

[[record]]
molecule = "Nc1cccc2c1C(=O)N(C1CCC(=O)NC1=O)C2=O (stereo not drawn)"
measure_name = "viability"
unit_of_measurement = "%"
reported_value = 107

[[record]]
molecule = "COc1ccc2cc(-c3nc(-c4ccc(S(C)=O)cc4)[nH]c3-c3ccncc3)ccc2c1 (stereo not drawn)"
measure_name = "viability"
unit_of_measurement = "%"
reported_value = 107

[[record]]
molecule = "C#Cc1cccc(Nc2ncnc3cc(OC)c(OCCCCCCC(=O)NO)cc23)c1"
measure_name = "viability"
unit_of_measurement = "%"
reported_value = 104

[[record]]
molecule = "Cc1ccc(C(=O)N(CCCN)[C@@H](c2oc3cc(Cl)ccc3c(=O)c2Cc2ccccc2)C(C)C)cc1"
measure_name = "viability"
unit_of_measurement = "%"
reported_value = 50.3

[[record]]
molecule = "Cc1ccc2nc(NC(=O)CSc3nc4c(c(=O)n3-c3ccccc3)SCC4)sc2c1"
measure_name = "viability"
unit_of_measurement = "%"
reported_value = 102

[[record]]
molecule = "Cc1ccc(F)c(NC(=O)Nc2ccc(-c3cccc4[nH]nc(N)c34)cc2)c1"
measure_name = "viability"
unit_of_measurement = "%"
reported_value = 81.6

[[record]]
molecule = "Cn1cc(-c2ccc3c(c2)CCN3C(=O)Cc2cccc(C(F)(F)F)c2)c2c(N)ncnc21"
measure_name = "viability"
unit_of_measurement = "%"
reported_value = 90.8

[[record]]
molecule = "CS(=O)(=O)c1cccc(CNc2nc(Nc3ccc4c(c3)CCC(=O)N4)ncc2C(F)(F)F)c1"
measure_name = "viability"
unit_of_measurement = "%"
reported_value = 84.8

[[record]]
molecule = "CS(=O)(=O)N1CCc2c(-c3cnc(N)nc3)nc(N3CCOCC3)nc21"
measure_name = "viability"
unit_of_measurement = "%"
reported_value = 115

[[record]]
molecule = "O=S(=O)(O)CCSSCCS(=O)(=O)O"
measure_name = "viability"
unit_of_measurement = "%"
reported_value = 105


----------
measurement-protocol: growth inhibition of DIPG cells – cell-based, MIPE5.0 library, qHTS (AID 1347068);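 as to IC50: cells exposed to compound for 48 hours before viability readout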
experimental-setup: SU-DIPG-XXV viability
Records with an inconclusive call do not appear. Calls of active or inactive are those of the source. Cut-off not given; nearly all actives show IC50 up to about 30 µM.
measure-name: IC50

[[record]]
molecule = "CCCN1CCN(c2ccc(C(=O)NC3(C(=O)NCC#N)CCCCC3)cc2)CC1"
reported_value = "inactive"

[[record]]
molecule = "CN1CCC(c2c(O)cc(O)c3c(=O)cc(-c4ccccc4Cl)oc23)C1CO (configuration not stated)"
reported_value = "1860 nM (active)"

[[record]]
molecule = "COc1cc2nccc(Oc3ccc(NC(=O)c4cn(C(C)C)c(=O)n(-c5ccc(F)cc5)c4=O)cc3F)c2cc1OC"
reported_value = "inactive"

[[record]]
molecule = "C[C@H]1CNCCCN1S(=O)(=O)c1cccc2cncc(F)c12"
reported_value = "inactive"

[[record]]
molecule = "Cc1cc(C)cc(NC(=O)Cc2ccc(OC(C)(C)C(=O)O)cc2)c1"
reported_value = "inactive"

[[record]]
molecule = "CC(=O)NCC(=O)N1[C@@H]2CC[C@H]1c1ccc(Nc3ncc(C(F)(F)F)c(NC4CCC4)n3)cc12"
reported_value = "833 nM (active)"

[[record]]
molecule = "COc1cc(N2CCN(C)CC2)ccc1Nc1nccc(-c2cn(C)c3cnccc23)n1"
reported_value = "inactive"


----------
measurement-protocol: drug combination growth inhibition, ovarian cancer – cell-based, oncology-focused library, rucaparib conditional, profiling panel (AID 1508598)
experimental-setup: patient-derived ovarian cancer cells, CellTiter-Glo viability, 144 h; at 1.25 µM; OCI-C5x cells; without rucaparib
The source made the active and inactive calls.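 The calls were made as follows: active = normalized viability below 100% at a tested concentration; inactive = the rest.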
Labels: Y (active), N (inactive)

[[record]]
cpd_smiles = "CS(=O)(=O)c1ccc(C(=O)Nc2ccc(Cl)c(-c3ccccn3)c2)c(Cl)c1"
classification = "N"

[[record]]
cpd_smiles = "NC1(c2ccc(-c3nc4ccn5c(=O)[nH]nc5c4cc3-c3ccccc3)cc2)CCC1"
classification = "N"

[[record]]
cpd_smiles = "Cc1ccc(C(=O)N(CCCN)[C@@H](c2nc3cc(Cl)ccc3c(=O)n2Cc2ccccc2)C(C)C)cc1"
classification = "Y"

[[record]]
cpd_smiles = "COc1cc(Nc2ncc3c(n2)-c2ccc(Cl)cc2C(c2c(F)cccc2OC)=NC3)ccc1C(=O)O"
classification = "Y"

[[record]]
cpd_smiles = "CC1(COc2ccc3c(c2)ncn3-c2ccc3cccc(N4CCC(N)CC4)c3n2)COC1"
classification = "N"

[[record]]
cpd_smiles = "CCC[C@H](Nc1nc(-c2ccc(NC(=O)NCC)c(OC)c2)ncc1C)c1cccnc1"
classification = "Y"

[[record]]
cpd_smiles = "Cn1cnc(=N)c2[nH]cnc21"
classification = "N"

[[record]]
cpd_smiles = "COc1ccc(S(=O)(=O)Nc2cccnc2Nc2ccc(O)cc2)cc1"
classification = "Y"

[[record]]
cpd_smiles = "CC(=O)c1c(C)c2cnc(Nc3ccc(N4CCNCC4)cn3)nc2n(C2CCCC2)c1=O"
classification = "N"

[[record]]
cpd_smiles = "Fc1cc(-c2cccc3ncc(-c4cnn(C5CCNCC5)c4)nc23)cc(F)c1CN1CCOCC1"
classification = "N"

[[record]]
cpd_smiles = "CN1CCC(CNc2ccc3ncc(-c4cccc(OC(F)(F)F)c4)n3n2)CC1"
classification = "Y"

[[record]]
cpd_smiles = "COc1cc2nccc(Oc3ccc(NC(=O)Nc4cc(C)on4)c(Cl)c3)c2cc1OC"
classification = "Y"

[[record]]
cpd_smiles = "N#CCNC(=O)c1ccc(-c2ccnc(Nc3ccc(N4CCOCC4)cc3)n2)cc1"
classification = "N"

[[record]]
cpd_smiles = "Cc1nc(N)sc1-c1ccnc(Nc2ccc(N3CCOCC3)cc2)n1"
classification = "N"

[[record]]
cpd_smiles = "Cc1cc(N2CCOCC2)cc2[nH]c(-c3c(NC[C@@H](O)c4cccc(Cl)c4)cc[nH]c3=O)nc12"
classification = "N"

[[record]]
cpd_smiles = "CN1CCCN(C(=O)c2cccc(-c3ccc(/C=C4/C(=O)Nc5ccc(Cl)cc54)o3)c2)CC1"
classification = "Y"

[[record]]
cpd_smiles = "Cc1ccc2nc(NC(=O)CSc3nc4c(c(=O)n3-c3ccccc3)SCC4)sc2c1"
classification = "N"

[[record]]
cpd_smiles = "CC(C)(C)Cn1c(N)nc2ccc(-c3[nH]c(C(C)(C)C)nc3-c3ccc(F)cc3)nc21"
classification = "N"

[[record]]
cpd_smiles = "Cc1cnc(Nc2ccc(OCCN3CCCC3)cc2)nc1Nc1cccc(S(=O)(=O)NC(C)(C)C)c1"
classification = "Y"

[[record]]
cpd_smiles = "Cc1cc2c(F)c(Oc3ncnn4cc(OC[C@@H](C)O)c(C)c34)ccc2[nH]1"
classification = "N"

[[record]]
cpd_smiles = "CCC(CC)CC1(C(=O)Nc2ccccc2SC(=O)C(C)C)CCCCC1"
classification = "N"


Data origin: PubChem BioAssay
